Test: galactose survival enhancers in mitochondrial complex I cybrids – cell-based, galactose medium, ATP luminescence, primary screen (AID 1645843);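 note: positive z means more ATP and so rescue of galactose-driven cybrid death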
Details: complex I mutant cybrid cells, 72 h, stronger effect = higher value
Here the recorded z-score is given for each entry.
# print the numeric value only

Below, 3 compounds whose answers are already recorded.
INSERT INTO assay_data (compound, metric, assay_result) VALUES
  ('O=C(O)/C=C/c1cnc[nH]1', 'z-score', 0.495),
  ('COC(=O)c1c(NC(=O)c2ccoc2)c2cc(NC(C)CSC)cnc2n1Cc1ccccc1 (stereo unspecified)', 'z-score', -1.28),
  ('NC(=O)NCc1cn(C2CCN(C(=O)C3CCCCCC3)CC2)nn1', 'z-score', -0.575);

# query: z-score of entry O=C(OC1CC2CC3C[C@@H](C1)N2CC3=O)c1c[nH]c2ccccc12 (stereo partly specified)
1.09

Give the measured z-score of NC(C(=O)N[C@@H]1C(=O)N2C(C(=O)O)=C(Cl)CS[C@H]12)c1ccccc1 (stereo partly specified) .
0.38

Entry Cn1nc(NC(=O)Cn2ccc(-c3ccco3)n2)c2ccccc21 : reported z-score = ?
0.205

* * *

Assay: P. berghei load reduction in hepatocytes – cell-based, HepG2, luciferase luminescence, HepG2 viability, primary screen (AID 624349);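 note: 100% = mean of DMSO negative control wells on the same plate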
Details: P. berghei liver stage in HepG2, luciferase luminescence, concentration not given here; measured here: HepG2 viability without parasites
Metric: viability (%)
Give the number; % is assumed, so skip it.

Answered cases to consult:
INSERT INTO assay_data (compound, assay_result) VALUES
  ('O=C(Nc1cccc(Nc2cc(Nc3cccc(C(F)(F)F)c3)ncn2)c1)C1CC1', 163),
  ('NC(=O)Nc1sc(-c2ccccc2)cc1C(N)=O', 90.8),
  ('Cc1cc(Nc2nc(-c3ccccc3)nc3ccccc23)n[nH]1', 117),
  ('Cn1nc2c3c(cccc31)C(=O)c1ccccc1-2', 83.8),
  ('CO[C@@]1(NC(=O)[C@H](C(=O)O)c2ccc(O)cc2)C(=O)N2C(C(=O)O)=C(CSc3nnnn3C)CO[C@@H]21', 98.4),
  ('CC[C@H]1OC(=O)[C@H](C)[C@@H](OC2C[C@@](C)(OC)[C@@H](O)[C@H](C)O2)[C@H](C)[C@@H](O[C@@H]2O[C@H](C)C[C@H](N(C)C)[C@H]2O)[C@](C)(O)C[C@@H](C)/C(=N\OCOCCOC)[C@H](C)[C@@H](O)[C@]1(C)O (stereo partly drawn)', 93.9),
  ('CSc1nc(-c2ccnc(NC(C)c3ccccc3)c2)c(-c2ccc(F)cc2)[nH]1 (stereo not drawn)', 77.8);

Next compound, please.
# lookup: viability of C[C@]12CCC(=O)C[C@H]1CC(=O)[C@@H]1[C@@H]2CC(=O)[C@]2(C)CCC[C@@H]12 (tested in a mixture with another compound)
86.8

* * *

Assay: viability loss with induced miR-34 in A549 – imaging, A549 dox-inducible miR-34, nuclei and caspase counts, primary screen (AID 1347080)
Conditions: A549 miR-34 inducible, Hoechst nuclei count, 48 h; measured here: relative caspase fold change +Dox/-Dox
Short version: fold change at least 1 is met, less is not met.

Check if fold change >= 1 (inclusive). Item: CN1C2CC(OC(=O)C(CO)c3ccccc3)CC1C1OC12 (centres undefined)
met

Kindly determine if fold change recorded for O=C(NCCc1ccco1)c1cc(C2CC2)[nH]n1 is above or exactly 1.
met

Confirm if fold change reported for the compound CNC1CN(c2ccc3c(=O)c(C(=O)O)cn(-c4nccs4)c3n2)CC1OC (centres undefined) is 1 or above.
not met

Reported fold change reaches at least 1 for CCOC(=O)C(CCc1ccccc1)NC(C)C(=O)N1CCCC1C(=O)O (centres undefined) ?
not met

Threshold query (fold change >= 1) on CCCC[C@@H](C)/C=C(C)/C=C(\C)C(=O)NC1=C[C@@](O)(/C=C/C=C/C=C/C(=O)NC2=C(O)CCC2=O)[C@@H]2O[C@@H]2C1=O
met

Confirm if fold change reported for the compound CC(C)c1cccc(C(C)C)c1N1C(=O)c2ccc(O)cc2C1=O is 1 or above.
not met

I'd appreciate it if you could say whether O=C(C=Cc1cccc(S(=O)(=O)Nc2ccccc2)c1)NO has fold change at least equal to 1.
not met

Reference source: PubChem BioAssay
